Taken from PubChem BioAssay AID1745844.

# Test system: rodent lifetime carcinogenesis bioassay, tumor incidence TD50
# assay_details: carcinogenic potency in animals, long-term in vivo studies, CPDB compilation (AID 1745844)
# conditions: rat; strain Charles River CD (Sprague-Dawley); males; by gavage; site: gastric mucosa; lesion: carcinoid tumor, malignant; dosed 105 weeks; study length 105 weeks
attribute_measured: TD50

Any idea what TD50 came out for NC(N)=Nc1nc(CSCCNc2nsnc2N)cs1 on rodent lifetime carcinogenesis bioassay, tumor incidence TD50?
4140 mg/kg/day

---

# Test system: rodent lifetime carcinogenesis bioassay, tumor incidence TD50
# assay_details: carcinogenic potency in animals, long-term in vivo studies, CPDB compilation (AID 1745844)
# conditions: rat; strain Fischer 344; males; in feed; site: spleen; lesion: fibrosarcoma + fibroma + sarcoma, NOS; dosed 78 weeks; study length 104 weeks
attribute_measured: TD50

Any idea what TD50 came out for Nc1ccc(S(=O)(=O)c2ccc(N)cc2)cc1 on rodent lifetime carcinogenesis bioassay, tumor incidence TD50?
22.4 mg/kg/day

---

Measured TD50, listed per entry for reference.
# Test system: rodent lifetime carcinogenesis bioassay, tumor incidence TD50
# assay_details: carcinogenic potency in animals, long-term in vivo studies, CPDB compilation (AID 1745844)
# conditions: rat; strain Fischer 344; females; in drinking water; site: nasal cavity; lesion: several types; types named in the paper; dosed 50 weeks; study length 65 weeks

{"compound": "C=CCN(CC(C)O)N=O (configuration not stated)", "TD50": "0.877 mg/kg/day"}

Query compound follows.
Item under review: C=CCN(CCO)N=O . Reported TD50?
0.491 mg/kg/day

---

# Tested on: rodent lifetime carcinogenesis bioassay, tumor incidence TD50
# assay_details: carcinogenic potency in animals, long-term in vivo studies, CPDB compilation (AID 1745844)
# conditions: rat; strain Fischer 344; males; in feed; site: mammary tissue, wider than the gland; lesion: fibroadenoma; dosed 72 weeks; study length 93 weeks
attribute_measured: TD50

Item under review: Cc1ccccc1N . Reported TD50?
149 mg/kg/day

---

# System: rodent lifetime carcinogenesis bioassay, tumor incidence TD50
# assay_details: carcinogenic potency in animals, long-term in vivo studies, CPDB compilation (AID 1745844)
# conditions: rat; strain Fischer 344; males; in drinking water; site: tunica vaginalis; lesion: mesothelioma; dosed 100 weeks; study length 100 weeks
attribute_measured: TD50

Item under review: [O-][Br+2]([O-])O . Reported TD50?
11.1 mg/kg/day

---

# Test system: rodent lifetime carcinogenesis bioassay, tumor incidence TD50
# assay_details: carcinogenic potency in animals, long-term in vivo studies, CPDB compilation (AID 1745844)
# conditions: rat; strain Fischer 344; females; in drinking water; site: thyroid gland; lesion: several types; types named in the paper; dosed 110 weeks; study length 111 weeks
attribute_measured: TD50
The number alone won't do; follow it with the unit.

Any idea what TD50 came out for [O-][Br+2]([O-])O on rodent lifetime carcinogenesis bioassay, tumor incidence TD50?
97.6 mg/kg/day

---

# System: rodent lifetime carcinogenesis bioassay, tumor incidence TD50
# assay_details: carcinogenic potency in animals, long-term in vivo studies, CPDB compilation (AID 1745844)
# conditions: mouse; strain B6C3F1; females; inhaled; site: uterus; lesion: endometrial stromal polyp; dosed 104 weeks; study length 107 weeks
attribute_measured: TD50
The number alone won't do; follow it with the unit.

Any idea what TD50 came out for CNC[C@H](O)c1ccc(O)c(O)c1 on rodent lifetime carcinogenesis bioassay, tumor incidence TD50?
8.52 mg/kg/day

---

# System: rodent lifetime carcinogenesis bioassay, tumor incidence TD50
# assay_details: carcinogenic potency in animals, long-term in vivo studies, CPDB compilation (AID 1745844)
# conditions: mouse; strain ICR/Jcl; males; in feed; site: esophagus; lesion: papilloma; dosed 52 weeks; study length 65 weeks
attribute_measured: TD50

Item under review: CCCCN(CCCC)N=O . Reported TD50?
11.9 mg/kg/day

---

# Tested on: rodent lifetime carcinogenesis bioassay, tumor incidence TD50
# assay_details: carcinogenic potency in animals, long-term in vivo studies, CPDB compilation (AID 1745844)
# conditions: rat; strain Fischer 344; females; in drinking water; site: uterus; lesion: endometrial stromal polyp + endometrial stromal sarcoma; dosed 96 weeks; study length 97 weeks
attribute_measured: TD50 (mg/kg/day)
State just the number; it will be interpreted in mg/kg/day.

Any idea what TD50 came out for COc1cc(-c2ccc(N=Nc3c(S(=O)(=O)O)cc4cc(S(=O)(=O)O)cc(N)c4c3O)c(OC)c2)ccc1N=Nc1c(S(=O)(=O)O)cc2cc(S(=O)(=O)O)cc(N)c2c1O on rodent lifetime carcinogenesis bioassay, tumor incidence TD50?
122

---

# Test system: rodent lifetime carcinogenesis bioassay, tumor incidence TD50
# assay_details: carcinogenic potency in animals, long-term in vivo studies, CPDB compilation (AID 1745844)
# conditions: mouse; strain Charles River CD1; females; in feed; site: liver; lesion: hepatocellular carcinoma; dosed 100 weeks; study length 100 weeks
The source made the active and inactive calls. No rule for the calls is given here.
attribute_measured: TD50

Item under review: COc1nn(CSP(=S)(OC)OC)c(=O)s1 . Reported TD50?
184 mg/kg/day (inactive)

---

# System: rodent lifetime carcinogenesis bioassay, tumor incidence TD50
# assay_details: carcinogenic potency in animals, long-term in vivo studies, CPDB compilation (AID 1745844)
# conditions: rat; strain Alpk:APfSD; females; by gavage; site: stomach; lesion: carcinoma; dosed 52 weeks; study length 108 weeks
attribute_measured: TD50

Item under review: FCCl . Reported TD50?
2710 mg/kg/day

---

# Test system: rodent lifetime carcinogenesis bioassay, tumor incidence TD50
# assay_details: carcinogenic potency in animals, long-term in vivo studies, CPDB compilation (AID 1745844)
# conditions: mouse; strain B6C3F1; males; by gavage; site: all sites; lesion: hemangiosarcoma; dosed 104 weeks; study length 104 weeks
attribute_measured: TD50 (mg/kg/day)
State just the number; it will be interpreted in mg/kg/day.

{"molecule": "COC1COC(OC2COC(OC3COC(OC4COC(OC)C(OS(=O)(=O)O)C4OS(=O)(=O)O)C(OC4OC(C(=O)O)C(OC)C(OS(=O)(=O)O)C4OS(=O)(=O)O)C3OS(=O)(=O)O)C(OS(=O)(=O)O)C2OS(=O)(=O)O)C(OS(=O)(=O)O)C1OS(=O)(=O)O (configuration not stated)", "measured_target": "rodent lifetime carcinogenesis bioassay, tumor incidence TD50", "TD50 (mg/kg/day)": 1340}

Query molecule follows.
Item under review: C=C1C/C(=C/C)C(=O)O[C@@H]2CCN3CC=C(COC(=O)[C@@]1(O)CO)[C@H]23 . Reported TD50?
1.63

---

# Test system: rodent lifetime carcinogenesis bioassay, tumor incidence TD50
# assay_details: carcinogenic potency in animals, long-term in vivo studies, CPDB compilation (AID 1745844)
# conditions: mouse; strain CD-1 HaM/ICR; males; in feed; site: any site (literature study); lesion: several types; types named in the paper; dosed 68 weeks; study length 94 weeks
attribute_measured: TD50
The number alone won't do; follow it with the unit.

Any idea what TD50 came out for Cc1ccc(C)c(N)c1 on rodent lifetime carcinogenesis bioassay, tumor incidence TD50?
321 mg/kg/day

---

# Test system: rodent lifetime carcinogenesis bioassay, tumor incidence TD50
# assay_details: carcinogenic potency in animals, long-term in vivo studies, CPDB compilation (AID 1745844)
# conditions: mouse; strain C57BL/6; females; in feed; site: stomach; lesion: squamous-cell papilloma; dosed 52 weeks; study length 69 weeks
attribute_measured: TD50 (mg/kg/day)
State just the number; it will be interpreted in mg/kg/day.

Item under review: CCCCCC(N)=O . Reported TD50?
8900

---

# System: rodent lifetime carcinogenesis bioassay, tumor incidence TD50
# assay_details: carcinogenic potency in animals, long-term in vivo studies, CPDB compilation (AID 1745844)
# conditions: mouse; strain CDF1; males; in feed; site: liver; lesion: several types; types named in the paper; dosed 97 weeks; study length 97 weeks
attribute_measured: TD50

Item under review: Nc1ccc2c(n1)[nH]c1ccccc12 . Reported TD50?
122 mg/kg/day

---

# Test system: rodent lifetime carcinogenesis bioassay, tumor incidence TD50
# assay_details: carcinogenic potency in animals, long-term in vivo studies, CPDB compilation (AID 1745844)
# conditions: hamster; strain Syrian Golden; females; in drinking water; site: dermis; lesion: melanocytoma; dosed 90 weeks; study length 90 weeks
attribute_measured: TD50

Item under review: CCOC(N)=O . Reported TD50?
74.4 mg/kg/day

---

# Tested on: rodent lifetime carcinogenesis bioassay, tumor incidence TD50
# assay_details: carcinogenic potency in animals, long-term in vivo studies, CPDB compilation (AID 1745844)
# conditions: mouse; strain DDY; females; in feed; site: liver; lesion: hepatocellular adenoma; dosed 81 weeks; study length 81 weeks
attribute_measured: TD50

Item under review: Cc1ccc(N=Nc2c(O)c(S(=O)(=O)O)cc3cc(S(=O)(=O)O)ccc23)c(C)c1 . Reported TD50?
21500 mg/kg/day
